src = paper PMC9864808

pIC50: −log10 of the molar value.
Record type: pIC50 measurement. Applies to: eeAChE (electric eel acetylcholinesterase) (Electrophorus electricus, UniProt O42275)

Considering C[C@@H]1O[C@@H](n2cnc3c(N(Cc4ccccc4)C(=O)c4ccccc4)ncnc32)[C@H](OCc2ccccc2)[C@H](OCc2ccccc2)[C@H]1OCc1ccccc1 , its pIC50 with eeAChE (electric eel acetylcholinesterase) (Electrophorus electricus, UniProt O42275) was recorded as < 4.70

Considering O=C(Nc1ncnc2ncn([C@H]3O[C@H](COCc4ccccc4)[C@@H](OCc4ccccc4)[C@H](OCc4ccccc4)[C@@H]3OCc3ccccc3)c12)c1ccccc1 , its pIC50 with eeAChE (electric eel acetylcholinesterase) (Electrophorus electricus, UniProt O42275) was recorded as < 4.70

Considering Clc1ncnc2c1ncn2[C@H]1O[C@H](COCc2ccccc2)[C@@H](OCc2ccccc2)[C@H](OCc2ccccc2)[C@@H]1OCc1ccccc1 [Compound 1, reference compound] , its pIC50 with eeAChE (electric eel acetylcholinesterase) (Electrophorus electricus, UniProt O42275) was recorded as 5.62

====

Record type: IC50 measurement. Applies to: eeAChE (electric eel acetylcholinesterase) (Electrophorus electricus, UniProt O42275)
Report the value in µM with no unit label.

>  <molecule>
CC(=O)Nc1nc(Cl)c2c(ncn2[C@H]2O[C@H](COCc3ccccc3)[C@@H](OCc3ccccc3)[C@H](OCc3ccccc3)[C@@H]2OCc2ccccc2)n1 [Compound 2, reference compound]

>  <IC50 / µM>
18.1

$$$$

# ---- query molecule ----
GET /value?item= O=C(Nc1ncnc2c1ncn2[C@@H]1O[C@H](COCc2ccccc2)[C@@H](OCc2ccccc2)[C@H](OCc2ccccc2)[C@@H]1OCc1ccccc1)c1ccccc1 &field=IC50 returns 10.6

====

target-desc: eqBChE (horse serum butyrylcholinesterase) (Equus caballus)
Construct: eqBChE (horse serum BChE); from tissue; host or cells: horse serum
experimental-details: biochemical
observation-type: eqBChE inhibition, result in words

>  <compound>
O=C(Nc1ncnc2ncn([C@H]3O[C@H](COCc4ccccc4)[C@@H](OCc4ccccc4)[C@H](OCc4ccccc4)[C@@H]3OCc3ccccc3)c12)c1ccccc1 [Compound 7]

>  <test-result>
selective

$$$$
>  <compound>
C[C@@H]1O[C@@H](n2cnc3c(N(Cc4ccccc4)C(=O)c4ccccc4)ncnc32)[C@H](OCc2ccccc2)[C@H](OCc2ccccc2)[C@H]1OCc1ccccc1 [Compound 13]

>  <test-result>
selective

$$$$

====

target-desc: eqBChE (horse serum butyrylcholinesterase) (Equus caballus, UniProt P81908)
Construct: eqBChE (horse serum BChE)
Sequence (P81908 whole entry): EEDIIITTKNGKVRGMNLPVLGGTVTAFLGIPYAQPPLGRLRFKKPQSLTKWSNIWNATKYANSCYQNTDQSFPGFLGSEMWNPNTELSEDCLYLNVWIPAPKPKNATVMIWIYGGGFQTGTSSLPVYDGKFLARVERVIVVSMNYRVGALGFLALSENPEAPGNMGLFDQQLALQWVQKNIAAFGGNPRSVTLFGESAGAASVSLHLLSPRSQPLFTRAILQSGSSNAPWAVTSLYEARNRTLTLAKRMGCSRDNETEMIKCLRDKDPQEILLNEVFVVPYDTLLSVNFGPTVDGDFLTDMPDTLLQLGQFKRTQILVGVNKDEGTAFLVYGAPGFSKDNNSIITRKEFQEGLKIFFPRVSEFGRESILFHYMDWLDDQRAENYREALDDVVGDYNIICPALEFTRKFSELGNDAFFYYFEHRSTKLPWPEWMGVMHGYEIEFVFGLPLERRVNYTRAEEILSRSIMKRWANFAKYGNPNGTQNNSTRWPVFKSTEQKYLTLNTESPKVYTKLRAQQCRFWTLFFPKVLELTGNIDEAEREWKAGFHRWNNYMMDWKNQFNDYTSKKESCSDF
experimental-details: biochemical
particulars: horse serum BChE, means ± SD of three measurements
observation-type: pIC50
Lab note: report pIC50 as minus log10 of the concentration in molar units, number only.

These solved cases illustrate the format of a correct answer.
>  <molecule>
O=C(Nc1ncnc2ncn([C@H]3O[C@H](COCc4ccccc4)[C@@H](OCc4ccccc4)[C@H](OCc4ccccc4)[C@@H]3OCc3ccccc3)c12)c1ccccc1

>  <target-desc>
eqBChE (horse serum butyrylcholinesterase) (Equus caballus, UniProt P81908)

>  <pIC50>
5.00

$$$$
>  <molecule>
Clc1ncnc2c1ncn2[C@H]1O[C@H](COCc2ccccc2)[C@@H](OCc2ccccc2)[C@H](OCc2ccccc2)[C@@H]1OCc1ccccc1 [Compound 1, reference compound]

>  <target-desc>
eqBChE (horse serum butyrylcholinesterase) (Equus caballus, UniProt P81908)

>  <pIC50>
5.55

$$$$
>  <molecule>
C[C@H]1O[C@@H](n2cnc3c(NC(=O)c4ccccc4)ncnc32)[C@@H](OCc2ccccc2)[C@@H](OCc2ccccc2)[C@@H]1OCc1ccccc1

>  <target-desc>
eqBChE (horse serum butyrylcholinesterase) (Equus caballus, UniProt P81908)

>  <pIC50>
4.93

$$$$
>  <molecule>
O=C(Nc1ncnc2ncn([C@@H]3O[C@H](COCc4ccccc4)[C@@H](OCc4ccccc4)[C@H](OCc4ccccc4)[C@@H]3OCc3ccccc3)c12)c1ccccc1

>  <target-desc>
eqBChE (horse serum butyrylcholinesterase) (Equus caballus, UniProt P81908)

>  <pIC50>
5.36

$$$$

GET /value?item= CC(=O)Nc1nc(Cl)c2c(ncn2[C@H]2O[C@H](COCc3ccccc3)[C@@H](OCc3ccccc3)[C@H](OCc3ccccc3)[C@@H]2OCc2ccccc2)n1 [Compound 2, reference compound] &field=pIC50 returns 7.30
